From: ChEMBL document CHEMBL2021851

# target.of.assay: Aurora kinase B (Homo sapiens, UniProt Q96GD4)
# Sequence (Q96GD4 whole entry): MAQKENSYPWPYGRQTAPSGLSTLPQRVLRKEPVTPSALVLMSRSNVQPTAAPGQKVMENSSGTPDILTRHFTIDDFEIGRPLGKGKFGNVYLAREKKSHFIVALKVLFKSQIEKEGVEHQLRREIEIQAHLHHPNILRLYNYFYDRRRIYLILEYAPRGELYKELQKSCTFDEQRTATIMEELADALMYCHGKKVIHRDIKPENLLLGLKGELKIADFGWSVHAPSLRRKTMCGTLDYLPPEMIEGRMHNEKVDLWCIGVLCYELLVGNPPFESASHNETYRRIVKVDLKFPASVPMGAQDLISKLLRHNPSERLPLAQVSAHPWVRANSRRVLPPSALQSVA
# protocol.notes: Inhibition of aurora B kinase in human HCT116 cells assessed as inhibition of histone H3 phosphorylation incubated for 1 hr by Hoechst 33342 staining based microscopic analysis

molecule: Cc1cn2c(-c3cnn(CC(=O)Nc4cccc(F)c4F)c3)cnc2c(Nc2cc(CN3CCCCC3)ns2)n1
EC50, nM: 58

molecule: Cc1cn2c(-c3cnn(CC(=O)NCc4cccc(F)c4F)c3)cnc2c(Nc2cc(CN3CCCCC3)ns2)n1
EC50, nM: 870

molecule: Cc1cn2c(-c3cnn(CC(=O)Nc4cccnc4F)c3)cnc2c(Nc2cc(CN3CCCC(C)C3)ns2)n1 (stereo not given)
EC50, nM: 110

molecule: Cc1cn2c(-c3cnn(CC(=O)Nc4ccncc4F)c3)cnc2c(Nc2cc(CN3CCCC(C)C3)ns2)n1 (stereo not given)
EC50, nM: 62

molecule: Cc1cn2c(-c3cnn(CC(=O)NCc4cccs4)c3)cnc2c(Nc2cc(CN3CCCC(C)C3)ns2)n1 (stereo not given)
EC50, nM: 193
